The origin of these recorded values is patent US9551722B2.

Hi there, I'd appreciate the recorded Excitation max after binding for every entry that follows.
# TARGET OF ASSAY: aggregated Aβ(1-42) peptides (Homo sapiens, UniProt P05067)
# Construct: preaggregated Aβ(1-42) peptides
# Sequence (P05067 672-713 limits assumed): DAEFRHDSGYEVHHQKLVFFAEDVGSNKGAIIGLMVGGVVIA
# MEASUREMENT NOTES: Fluorescence spectra before and after mixing with preaggregated Aβ(1-42) (Cmpds 8a-8d, 11, 14, 19)
# Format: binding
# RUN CONDITIONS: 4 μM compound, 5 μM aggregated Aβ(1-42), PBS, 25° C.
Kindly provide the numeric value in nm only, without the unit symbol.

Field request: Excitation max after binding | item: `COCCOCCOCCOC(=O)/C(C#N)=C/c1ccc2cc(N3CCCCC3)ccc2c1` 440

Field request: Excitation max after binding | item: CN(C)c1ccc(/C=C(\C#N)C(=O)OCC(O)CO)cc1 (stereo not drawn) 434

Field request: Excitation max after binding | item: `COCCOCCOCCOC(=O)/C(C#N)=C/c1ccc(N(C)C)cc1OC` 444

Field request: Excitation max after binding | item: CCCCN(CCCC)c1ccc(C=C(C#N)C(=O)OCCOCCOCCOC)cc1 (stereo in doubt) 440

Field request: Excitation max after binding | item: `COCCOCCOCCOC(=O)/C(C#N)=C/c1ccc(N(C)C)cc1` 435

Field request: Excitation max after binding | item: CCN(CC)c1ccc(C=C(C#N)C(=O)OCCOCCOCCOC)cc1 (stereo in doubt) 442

----------
# TARGET OF ASSAY: interaction of the aggregated Aβ peptide with a monoclonal anti-Aβ IgG (Homo sapiens, UniProt P05067)
# Construct: Aggregated Aβ peptides were generated from synthetic Aβ(1-42) peptides
# Sequence (P05067 672-713 limits assumed): as above
# MEASUREMENT NOTES: Semi-quantitative ELISA: inhibition of IgG-Aβ fibril interactions
# Type: binding
# RUN CONDITIONS: 50% inhibition of IgG-Aβ interactions; anti-Aβ IgG clone 6E10
Hi there, I'd appreciate the recorded log10(IC50) for every entry that follows.
// units: µM (pre-log); metric: IC50; scale: log10

Field request: log10(IC50) | item: CN(C)c1ccc(/C=C(\C#N)C(=O)OCC(O)CO)cc1 (stereo not drawn) [Cmpd 14] 1.91

Field request: log10(IC50) | item: COCCOCCOCCOC(=O)/C(C#N)=C/c1ccc(N(C)C)cc1 [Cmpd 8a] 2.11

Field request: log10(IC50) | item: COCCOCCOCCOC(=O)/C(C#N)=C/c1ccc(/C=C/c2ccc(N(C)C)cc2)cc1 [Cmpd 19] 1.53

Field request: log10(IC50) | item: CCN(CC)c1ccc(C=C(C#N)C(=O)OCCOCCOCCOC)cc1 (stereo in doubt) [Cmpd 8c] 1.06

Field request: log10(IC50) | item: CCCCN(CCCC)c1ccc(C=C(C#N)C(=O)OCCOCCOCCOC)cc1 (stereo in doubt) [Cmpd 8d] 1.96

Field request: log10(IC50) | item: COCCOCCOCCOC(=O)/C(C#N)=C/c1ccc2cc(N3CCCCC3)ccc2c1 [Cmpd 11] 1.87

----------
# TARGET OF ASSAY: aggregated Aβ42 peptides (Homo sapiens)
# Construct: preaggregated Aβ(1-42) peptides
# Sequence (P05067 672-713 limits assumed): as above
# MEASUREMENT NOTES: Apparent binding constant (Kd) of probes 27-31, 33 by fluorescence intensity vs concentration
# RUN CONDITIONS: probe 1.25, 2.5, 5.0, 10 μM in nano-pure water; 5 μM pre-aggregated Aβ42; read-out: Kd
Lab note: compare Kd with 2 µM, writing met if less and not met if equal or more.

Is Kd of `COCCOCCOCCOC(=O)/C(C#N)=C/c1ccc2cc(N3CCCCC3)ccc2c1` strictly below 2 µM? met

Is Kd of `COCCOCCOCCOCCOC(=O)/C(C#N)=C/c1ccc2cc(N3CCCCC3)ccc2c1` strictly below 2 µM? met

Is Kd of `COCCOCCOCCOC(=O)/C(C#N)=C/c1ccc2cc(NCCN3CCOCC3)ccc2c1` strictly below 2 µM? not met

Is Kd of `COCCOCCOCCOC(=O)/C(C#N)=C/c1ccc2cc(N3CCN(C)CC3)ccc2c1` strictly below 2 µM? not met

Is Kd of `COCCOCCOCCOC(=O)/C(C#N)=C/c1ccc2cc(N3CCOCC3)ccc2c1` strictly below 2 µM? not met

Is Kd of N#C/C(=C\c1ccc2cc(N3CCCCC3)ccc2c1)C(=O)OCC(O)CO (stereo not drawn) strictly below 2 µM? met

----------
# TARGET OF ASSAY: aggregated Aβ(1-42) peptides (Homo sapiens)
# Construct: preaggregated Aβ(1-42) peptides
# MEASUREMENT NOTES: Fluorescence of probes 27-31, 33 before and after mixing with aggregated Aβ42
# Format: binding
# RUN CONDITIONS: 4 μM probe, nano-pure water (5% DMSO), without Aβ
PROPERTY NAME: Em. max (nm) before
Kindly provide the numeric value in nm only, without the unit symbol.

Field request: Em. max (nm) before | item: `COCCOCCOCCOC(=O)/C(C#N)=C/c1ccc2cc(NCCN3CCOCC3)ccc2c1` 570

Field request: Em. max (nm) before | item: `COCCOCCOCCOC(=O)/C(C#N)=C/c1ccc2cc(N3CCOCC3)ccc2c1` 530

Field request: Em. max (nm) before | item: N#C/C(=C\c1ccc2cc(N3CCCCC3)ccc2c1)C(=O)OCC(O)CO (stereo not shown) 540

Field request: Em. max (nm) before | item: `COCCOCCOCCOC(=O)/C(C#N)=C/c1ccc2cc(N3CCN(C)CC3)ccc2c1` 580

----------
# TARGET OF ASSAY: aggregated Aβ(1-42) peptides (Homo sapiens)
# Construct: preaggregated Aβ(1-42) peptides
# MEASUREMENT NOTES: Fluorescence spectra before and after mixing with preaggregated Aβ(1-42) (Cmpds 8a-8d, 11, 14, 19)
# Format: binding
# RUN CONDITIONS: 4 μM compound, 5 μM aggregated Aβ(1-42), PBS, 25° C.
PROPERTY NAME: Emission max after binding

Which measured Emission max after binding belongs to `COCCOCCOCCOC(=O)/C(C#N)=C/c1ccc2cc(N3CCCCC3)ccc2c1` , tested on aggregated Aβ(1-42) peptides (Homo sapiens)? 538 nm

Which measured Emission max after binding belongs to `COCCOCCOCCOC(=O)/C(C#N)=C/c1ccc(N(C)C)cc1` , tested on aggregated Aβ(1-42) peptides (Homo sapiens)? 470 nm

Which measured Emission max after binding belongs to `COCCOCCOCCOC(=O)/C(C#N)=C/c1ccc(N(C)C)cc1OC` , tested on aggregated Aβ(1-42) peptides (Homo sapiens)? 469 nm

Which measured Emission max after binding belongs to CN(C)c1ccc(/C=C(\C#N)C(=O)OCC(O)CO)cc1 (stereo not drawn) , tested on aggregated Aβ(1-42) peptides (Homo sapiens)? 467 nm

Which measured Emission max after binding belongs to CCN(CC)c1ccc(C=C(C#N)C(=O)OCCOCCOCCOC)cc1 (stereo in doubt) , tested on aggregated Aβ(1-42) peptides (Homo sapiens)? 470 nm

Which measured Emission max after binding belongs to CCCCN(CCCC)c1ccc(C=C(C#N)C(=O)OCCOCCOCCOC)cc1 (stereo in doubt) , tested on aggregated Aβ(1-42) peptides (Homo sapiens)? 468 nm

----------
Hi there, I'd appreciate the recorded pKd for every entry that follows.
# TARGET OF ASSAY: pre-aggregated Aβ(1-42) peptide (Homo sapiens)
# Construct: preaggregated Aβ(1-42) peptides
# Sequence (P05067 672-713 limits assumed): as above
# MEASUREMENT NOTES: Apparent binding constant (Kd) by double reciprocal fluorescence plot
# RUN CONDITIONS: compound 10, 5, 2.5, 1.25 μM; 5.0 μM pre-aggregated Aβ(1-42); PBS pH 7.4
# pKd: negative log10 of molar concentration; output just the value

Field request: pKd | item: `COCCOCCOCCOC(=O)/C(C#N)=C/c1ccc(N(C)C)cc1` 5.59

Field request: pKd | item: `COCCOCCOCCOC(=O)/C(C#N)=C/c1ccc(N(C)C)cc1OC` 5.28

Field request: pKd | item: `COCCOCCOCCOC(=O)/C(C#N)=C/c1ccc2cc(N3CCCCC3)ccc2c1` 5.60

Field request: pKd | item: CN(C)c1ccc(/C=C(\C#N)C(=O)OCC(O)CO)cc1 (stereo not shown) 5.48

Field request: pKd | item: CCN(CC)c1ccc(C=C(C#N)C(=O)OCCOCCOCCOC)cc1 (stereo in doubt) 5.32

Field request: pKd | item: CCCCN(CCCC)c1ccc(C=C(C#N)C(=O)OCCOCCOCCOC)cc1 (stereo in doubt) 5.36

Field request: pKd | item: `COCCOCCOCCOC(=O)/C(C#N)=C/c1ccc(/C=C/c2ccc(N(C)C)cc2)cc1` 5.85

----------
# TARGET OF ASSAY: aggregated Aβ(1-42) peptides (Homo sapiens)
# Construct: preaggregated Aβ(1-42) peptides
# MEASUREMENT NOTES: Fluorescence of probes 27-31, 33 before and after mixing with aggregated Aβ42
# Type: binding
# RUN CONDITIONS: 4 μM probe, nano-pure water (5% DMSO), without Aβ
PROPERTY NAME: Exc. max (nm) before
Kindly provide the numeric value in nm only, without the unit symbol.

Which measured Exc. max (nm) before belongs to N#C/C(=C\c1ccc2cc(N3CCCCC3)ccc2c1)C(=O)OCC(O)CO (stereo not shown) , tested on aggregated Aβ(1-42) peptides (Homo sapiens)? 410

Which measured Exc. max (nm) before belongs to `COCCOCCOCCOC(=O)/C(C#N)=C/c1ccc2cc(N3CCOCC3)ccc2c1` , tested on aggregated Aβ(1-42) peptides (Homo sapiens)? 400

Which measured Exc. max (nm) before belongs to `COCCOCCOCCOC(=O)/C(C#N)=C/c1ccc2cc(N3CCN(C)CC3)ccc2c1` , tested on aggregated Aβ(1-42) peptides (Homo sapiens)? 400

Which measured Exc. max (nm) before belongs to `COCCOCCOCCOC(=O)/C(C#N)=C/c1ccc2cc(NCCN3CCOCC3)ccc2c1` , tested on aggregated Aβ(1-42) peptides (Homo sapiens)? 430
